# testSystem: Histone deacetylase 5 (Homo sapiens)
# Sequence (Q9UQL6 whole entry): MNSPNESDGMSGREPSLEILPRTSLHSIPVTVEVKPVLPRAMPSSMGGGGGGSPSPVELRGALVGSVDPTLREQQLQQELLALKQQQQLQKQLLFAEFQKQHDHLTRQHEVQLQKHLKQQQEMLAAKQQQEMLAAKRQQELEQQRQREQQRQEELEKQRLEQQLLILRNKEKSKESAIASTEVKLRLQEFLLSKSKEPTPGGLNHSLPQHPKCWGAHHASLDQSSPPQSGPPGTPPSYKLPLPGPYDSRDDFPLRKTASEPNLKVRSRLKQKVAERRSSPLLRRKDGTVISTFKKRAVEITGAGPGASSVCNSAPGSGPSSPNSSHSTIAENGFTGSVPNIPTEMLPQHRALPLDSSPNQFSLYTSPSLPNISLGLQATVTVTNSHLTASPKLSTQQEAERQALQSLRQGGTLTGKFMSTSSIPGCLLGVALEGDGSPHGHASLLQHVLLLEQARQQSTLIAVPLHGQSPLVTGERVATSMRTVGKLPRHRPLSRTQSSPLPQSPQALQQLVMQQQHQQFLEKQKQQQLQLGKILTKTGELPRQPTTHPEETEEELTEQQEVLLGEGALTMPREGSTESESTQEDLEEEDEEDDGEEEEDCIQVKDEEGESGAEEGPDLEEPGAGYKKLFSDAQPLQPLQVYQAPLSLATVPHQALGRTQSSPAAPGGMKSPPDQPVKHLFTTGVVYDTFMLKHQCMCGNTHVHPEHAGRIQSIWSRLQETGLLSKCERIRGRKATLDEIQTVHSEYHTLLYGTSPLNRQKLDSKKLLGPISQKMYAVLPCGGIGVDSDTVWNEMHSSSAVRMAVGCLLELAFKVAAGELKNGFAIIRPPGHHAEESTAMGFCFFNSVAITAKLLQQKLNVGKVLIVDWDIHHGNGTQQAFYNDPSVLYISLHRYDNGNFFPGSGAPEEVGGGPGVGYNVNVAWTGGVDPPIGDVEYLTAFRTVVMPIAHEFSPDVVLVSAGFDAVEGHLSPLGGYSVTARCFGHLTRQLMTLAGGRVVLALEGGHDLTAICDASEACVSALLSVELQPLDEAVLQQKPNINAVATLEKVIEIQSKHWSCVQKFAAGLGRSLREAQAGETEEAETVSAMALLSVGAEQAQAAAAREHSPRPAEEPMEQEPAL
# testName: Inhibition of recombinant HDAC5 (unknown origin) using Boc-Lys(TFA)-AMC as substrate by fluorescence based plate reader assay
Collected pIC50 values appear next to each entry.
pIC50 (log units): -log10 of the concentration in mol/L.

CCCN(CCCCOCCOCCOCC(=O)N[C@H](C(=O)N1C[C@H](O)C[C@H]1C(=O)NCc1ccc(-c2scnc2C)cc1)C(C)(C)C)C[C@@H](C)NC(=O)c1ccc(-c2noc(C(F)(F)F)n2)cc1 : 6.85
Cc1ncsc1-c1ccc(CNC(=O)[C@@H]2C[C@@H](O)CN2C(=O)[C@@H](NC(=O)COCCOCCOCCOCCOCC(F)(F)c2cnc(-c3ccc(C(C(=O)NO)c4ccccc4F)cc3)nc2)C(C)(C)C)cc1 (stereo partly drawn) : 6.59

--- query ---
Consider the molecule Cc1ncsc1-c1ccc(CNC(=O)[C@@H]2C[C@@H](O)CN2C(=O)[C@@H](NC(=O)COCCOCCOCCOCC(F)(F)c2cnc(-c3ccc(C(C(=O)NO)c4ccccc4F)cc3)nc2)C(C)(C)C)cc1 (stereo partly drawn) . State its measured pIC50.
6.51

----------
# testName: Kinetic aqueous solubility of the compound in PBS buffer at pH 7.4 incubated for 2 hrs under shaking condition by LC-UV analysis
# Type: physicochemical
# assayContext: read-out: Kinetic_solubility
Collected solubility kinetic at 2 h values appear next to each entry.

Cc1ncsc1-c1ccc(CNC(=O)[C@@H]2C[C@@H](O)CN2C(=O)[C@@H](NC(=O)COCCOCCOCC(F)(F)c2cnc(-c3ccc(C(C(=O)NO)c4ccccc4F)cc3)nc2)C(C)(C)C)cc1 (mixture of isomers) : 5.2 µM
Cc1ncsc1-c1ccc(CNC(=O)[C@@H]2C[C@H](O)CN2C(=O)[C@@H](NC(=O)COCCOCCOCCOCCOCC(F)(F)c2cnc(-c3ccc(C(C(=O)NO)c4ccccc4F)cc3)nc2)C(C)(C)C)cc1 (stereo partly drawn) : 4.8 µM

--- query ---
Consider the compound Cc1ncsc1-c1ccc(CNC(=O)[C@@H]2C[C@@H](O)CN2C(=O)[C@@H](NC(=O)COCCOCCOCCOCC(F)(F)c2cnc(-c3ccc(C(C(=O)NO)c4ccccc4F)cc3)nc2)C(C)(C)C)cc1 (stereo partly drawn) . State its measured solubility kinetic at 2 h.
5 µM

----------
# testSystem: von Hippel-Lindau disease tumor suppressor/Histone deacetylase 4 (Homo sapiens, UniProt P40337+P56524)
# Sequence (P56524 whole entry): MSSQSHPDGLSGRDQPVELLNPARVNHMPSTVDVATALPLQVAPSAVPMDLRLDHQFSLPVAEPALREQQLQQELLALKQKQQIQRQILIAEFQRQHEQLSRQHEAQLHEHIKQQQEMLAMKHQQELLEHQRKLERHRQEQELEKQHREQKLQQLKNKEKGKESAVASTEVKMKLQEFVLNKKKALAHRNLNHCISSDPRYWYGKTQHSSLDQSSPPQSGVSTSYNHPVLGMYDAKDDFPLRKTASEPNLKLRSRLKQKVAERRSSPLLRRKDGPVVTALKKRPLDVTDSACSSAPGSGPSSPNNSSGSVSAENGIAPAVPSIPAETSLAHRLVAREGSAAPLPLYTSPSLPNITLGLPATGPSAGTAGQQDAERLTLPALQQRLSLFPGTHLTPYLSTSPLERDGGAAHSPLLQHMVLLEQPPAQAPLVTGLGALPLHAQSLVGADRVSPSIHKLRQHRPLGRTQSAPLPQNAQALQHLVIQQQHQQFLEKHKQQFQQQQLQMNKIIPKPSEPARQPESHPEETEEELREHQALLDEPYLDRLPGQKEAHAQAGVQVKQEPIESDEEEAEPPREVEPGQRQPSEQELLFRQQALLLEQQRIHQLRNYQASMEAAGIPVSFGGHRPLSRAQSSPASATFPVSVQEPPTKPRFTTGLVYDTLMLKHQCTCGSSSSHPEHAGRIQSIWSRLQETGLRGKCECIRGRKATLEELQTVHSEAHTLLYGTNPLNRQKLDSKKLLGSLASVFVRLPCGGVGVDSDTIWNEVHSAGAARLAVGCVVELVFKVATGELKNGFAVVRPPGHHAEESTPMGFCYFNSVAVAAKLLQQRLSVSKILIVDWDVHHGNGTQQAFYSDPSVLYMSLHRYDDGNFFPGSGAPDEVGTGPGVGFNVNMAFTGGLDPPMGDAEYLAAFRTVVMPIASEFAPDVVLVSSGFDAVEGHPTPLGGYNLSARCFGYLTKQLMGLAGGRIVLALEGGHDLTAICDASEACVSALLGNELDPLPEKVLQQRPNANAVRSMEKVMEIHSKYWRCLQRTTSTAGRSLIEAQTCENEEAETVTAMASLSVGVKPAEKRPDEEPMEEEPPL
# Sequence (P40337 whole entry): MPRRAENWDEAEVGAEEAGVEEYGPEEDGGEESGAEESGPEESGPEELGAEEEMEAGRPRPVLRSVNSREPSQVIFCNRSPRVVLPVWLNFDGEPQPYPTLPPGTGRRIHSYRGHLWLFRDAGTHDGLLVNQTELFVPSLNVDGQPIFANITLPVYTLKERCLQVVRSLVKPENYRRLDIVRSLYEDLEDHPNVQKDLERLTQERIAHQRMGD
# testName: Protac activity at VHL/HDAC4 in human Jurkat E6.1 cells assessed as induction of HDAC4 degradation preincubated with elacridar for 1 hr followed by compound addition and measured after 24 hrs by Western blot analysis
# Assay type: cell-based
assayEndpoint: pEC50
pEC50 (log units): -log10 of the concentration in mol/L.

Consider the compound CCCN(CCCCOCCOCCOCCOCCOCC(=O)N[C@H](C(=O)N1C[C@H](O)C[C@H]1C(=O)NCc1ccc(-c2scnc2C)cc1)C(C)(C)C)C[C@@H](C)NC(=O)c1ccc(-c2noc(C(F)(F)F)n2)cc1 . State its measured pEC50.
8.80

----------
# testSystem: Vhl/Hdac4 (Mus musculus, UniProt P40338+Q6NZM9)
# Sequence (Q6NZM9 whole entry): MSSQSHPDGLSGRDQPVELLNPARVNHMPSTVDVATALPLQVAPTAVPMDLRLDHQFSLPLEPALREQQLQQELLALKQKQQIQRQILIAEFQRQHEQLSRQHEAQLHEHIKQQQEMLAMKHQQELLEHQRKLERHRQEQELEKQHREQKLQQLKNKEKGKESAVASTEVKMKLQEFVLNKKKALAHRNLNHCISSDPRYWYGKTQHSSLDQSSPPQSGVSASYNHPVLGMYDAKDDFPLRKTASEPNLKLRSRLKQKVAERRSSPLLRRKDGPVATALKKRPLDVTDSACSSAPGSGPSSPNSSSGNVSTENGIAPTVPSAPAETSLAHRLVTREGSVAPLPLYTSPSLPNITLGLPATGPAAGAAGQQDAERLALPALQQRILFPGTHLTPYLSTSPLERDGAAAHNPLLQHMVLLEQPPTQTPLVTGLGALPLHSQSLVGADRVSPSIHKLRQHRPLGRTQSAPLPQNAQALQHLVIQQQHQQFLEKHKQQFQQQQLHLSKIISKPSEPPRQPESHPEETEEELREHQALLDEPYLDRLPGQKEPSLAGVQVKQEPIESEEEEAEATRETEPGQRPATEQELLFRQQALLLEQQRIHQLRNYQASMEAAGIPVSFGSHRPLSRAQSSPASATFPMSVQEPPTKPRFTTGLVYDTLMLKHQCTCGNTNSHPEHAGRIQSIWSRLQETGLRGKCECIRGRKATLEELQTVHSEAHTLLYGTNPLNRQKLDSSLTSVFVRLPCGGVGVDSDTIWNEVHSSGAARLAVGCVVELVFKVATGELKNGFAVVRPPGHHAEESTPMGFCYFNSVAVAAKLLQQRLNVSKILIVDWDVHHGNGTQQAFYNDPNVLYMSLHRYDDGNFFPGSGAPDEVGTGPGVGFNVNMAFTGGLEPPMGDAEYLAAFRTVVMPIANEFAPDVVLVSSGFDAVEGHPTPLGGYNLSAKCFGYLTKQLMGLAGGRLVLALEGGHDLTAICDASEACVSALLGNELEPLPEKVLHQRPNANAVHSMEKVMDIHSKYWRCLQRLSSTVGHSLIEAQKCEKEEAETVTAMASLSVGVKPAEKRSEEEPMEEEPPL
# Sequence (P40338 whole entry): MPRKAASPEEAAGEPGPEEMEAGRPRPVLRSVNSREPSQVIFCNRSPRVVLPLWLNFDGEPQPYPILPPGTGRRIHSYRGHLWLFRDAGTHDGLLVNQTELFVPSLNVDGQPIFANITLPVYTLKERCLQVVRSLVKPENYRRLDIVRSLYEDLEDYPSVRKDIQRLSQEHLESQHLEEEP
# testName: Protac activity at VHL/HDAC4 in mouse Neuro2a cells assessed as induction of HDAC4 degradation preincubated with elacridar for 1 hr followed by compound addition and measured after 24 hrs by MSD assay
assayEndpoint: EC50 (nM)
Write down the numeric answer in nM and omit the unit.

Consider the compound CCCN(CCCCOCCOCCOCCOCCOCC(=O)N[C@H](C(=O)N1C[C@H](O)C[C@H]1C(=O)NCc1ccc(-c2scnc2C)cc1)C(C)(C)C)C[C@@H](C)NC(=O)c1ccc(-c2noc(C(F)(F)F)n2)cc1 . State its measured EC50.
2.3

----------
Collected pEC50 values appear next to each entry.
# testSystem: von Hippel-Lindau disease tumor suppressor/Histone deacetylase 4 (Homo sapiens, UniProt P40337+P56524)
# testName: Protac activity at VHL/HDAC4 in human Jurkat E6.1 cells assessed as induction of HDAC4 degradation incubated for 24 hrs by ELISA-based MSD electrochemiluminescence assay
# Format: cell-based
pEC50 (log units): -log10 of the concentration in mol/L.

Consider the compound Cc1ncsc1-c1ccc(CNC(=O)[C@@H]2C[C@@H](O)CN2C(=O)[C@@H](NC(=O)COCCOCCOCCOCCOCC(F)(F)c2cnc(-c3ccc(C(C(=O)NO)c4ccccc4F)cc3)nc2)C(C)(C)C)cc1 (stereo not given in full) . State its measured pEC50.
7.43

----------
# testSystem: von Hippel-Lindau disease tumor suppressor/Histone deacetylase 4 (Homo sapiens, UniProt P40337+P56524)
# testName: Protac activity at VHL/HDAC4 in human Jurkat E6.1 cells assessed as induction of HDAC4 degradation incubated for 24 hrs in absence of elacridar by Western blot analysis
# Assay type: cell-based
assayEndpoint: EC50 (nM)
Write down the numeric answer in nM and omit the unit.

Consider the molecule CCCN(CCCCOCCOCCOCCOCCOCC(=O)N[C@H](C(=O)N1C[C@H](O)C[C@H]1C(=O)NCc1ccc(-c2scnc2C)cc1)C(C)(C)C)C[C@@H](C)NC(=O)c1ccc(-c2noc(C(F)(F)F)n2)cc1 . State its measured EC50.
1.7

----------
# testSystem: von Hippel-Lindau disease tumor suppressor/Histone deacetylase 4 (Homo sapiens, UniProt P40337+P56524)
# testName: Protac activity at VHL/HDAC4 in human Jurkat E6.1 cells assessed as induction of HDAC4 degradation incubated for 24 hrs by ELISA-based MSD electrochemiluminescence assay
# Assay type: cell-based
assayEndpoint: pEC50
pEC50 (log units): -log10 of the concentration in mol/L.

Cc1ncsc1-c1ccc(CNC(=O)[C@@H]2C[C@@H](O)CN2C(=O)[C@@H](NC(=O)COCCOCCOCC(F)(F)c2cnc(-c3ccc(C(C(=O)NO)c4ccccc4F)cc3)nc2)C(C)(C)C)cc1 (mixture of isomers) : 7.55

Consider the molecule Cc1ncsc1-c1ccc(CNC(=O)[C@@H]2C[C@@H](O)CN2C(=O)[C@@H](NC(=O)COCCOCCOCCOCC(F)(F)c2cnc(-c3ccc(C(C(=O)NO)c4ccccc4F)cc3)nc2)C(C)(C)C)cc1 (stereo partly drawn) . State its measured pEC50.
7.32

----------
# testSystem: Class 1 histone deacetylase (Homo sapiens, UniProt Q13547+O15379+Q92769+Q9BY41)
# testName: Inhibition of class 1 HDAC in human Jurkat E6.1 cells using Boc-Lys(Ac)-AMC as substrate incubated for 24 hrs by plate reader assay
# Assay type: cell-based
assayEndpoint: IC50

Cc1ncsc1-c1ccc(CNC(=O)[C@@H]2C[C@@H](O)CN2C(=O)[C@@H](NC(=O)COCCOCCOCCOCCOCC(F)(F)c2cnc(-c3ccc(C(C(=O)NO)c4ccccc4F)cc3)nc2)C(C)(C)C)cc1 (stereo partly drawn) : > 5 µM

Consider the compound Cc1ncsc1-c1ccc(CNC(=O)[C@@H]2C[C@H](O)CN2C(=O)[C@@H](NC(=O)COCCOCCOCCOCCOCC(F)(F)c2cnc(-c3ccc(C(C(=O)NO)c4ccccc4F)cc3)nc2)C(C)(C)C)cc1 (stereo partly drawn) . State its measured IC50.
> 5 µM

Consider the compound Cc1ncsc1-c1ccc(CNC(=O)[C@@H]2C[C@@H](O)CN2C(=O)[C@@H](NC(=O)COCCOCCOCC(F)(F)c2cnc(-c3ccc(C(C(=O)NO)c4ccccc4F)cc3)nc2)C(C)(C)C)cc1 (mixture of isomers) . State its measured IC50.
> 5 µM

Consider the compound CCCN(CCCCOCCOCCOCC(=O)N[C@H](C(=O)N1C[C@H](O)C[C@H]1C(=O)NCc1ccc(-c2scnc2C)cc1)C(C)(C)C)C[C@@H](C)NC(=O)c1ccc(-c2noc(C(F)(F)F)n2)cc1 . State its measured IC50.
4.3 µM

Consider the compound CCCN(CCCCOCCOCCOCCOCC(=O)N[C@H](C(=O)N1C[C@H](O)C[C@H]1C(=O)NCc1ccc(-c2scnc2C)cc1)C(C)(C)C)C[C@@H](C)NC(=O)c1ccc(-c2noc(C(F)(F)F)n2)cc1 . State its measured IC50.
2.8 µM

Consider the compound CCCN(CCCCOCCOCCOCCOCCOCC(=O)N[C@H](C(=O)N1C[C@H](O)C[C@H]1C(=O)NCc1ccc(-c2scnc2C)cc1)C(C)(C)C)C[C@@H](C)NC(=O)c1ccc(-c2noc(C(F)(F)F)n2)cc1 . State its measured IC50.
> 5 µM

Consider the compound CCCN(CCCCOCCOCCOCCOCCOCC(=O)N[C@@H](C(=O)N1C[C@@H](O)C[C@@H]1C(=O)NCc1ccc(-c2scnc2C)cc1)C(C)(C)C)C[C@@H](C)NC(=O)c1ccc(-c2noc(C(F)(F)F)n2)cc1 . State its measured IC50.
> 5 µM

Consider the compound Cc1ncsc1-c1ccc(CNC(=O)[C@@H]2C[C@@H](O)CN2C(=O)[C@@H](NC(=O)COCCOCCOCCOCC(F)(F)c2cnc(-c3ccc(C(C(=O)NO)c4ccccc4F)cc3)nc2)C(C)(C)C)cc1 (stereo partly drawn) . State its measured IC50.
> 5 µM
